Reported pKi is given for each of the following molecules.
- MEASURED TARGET: recombinant human ALK5 (TGF-βR1) protein (Homo sapiens, UniProt P36897)
- Sequence (P36897 34-503): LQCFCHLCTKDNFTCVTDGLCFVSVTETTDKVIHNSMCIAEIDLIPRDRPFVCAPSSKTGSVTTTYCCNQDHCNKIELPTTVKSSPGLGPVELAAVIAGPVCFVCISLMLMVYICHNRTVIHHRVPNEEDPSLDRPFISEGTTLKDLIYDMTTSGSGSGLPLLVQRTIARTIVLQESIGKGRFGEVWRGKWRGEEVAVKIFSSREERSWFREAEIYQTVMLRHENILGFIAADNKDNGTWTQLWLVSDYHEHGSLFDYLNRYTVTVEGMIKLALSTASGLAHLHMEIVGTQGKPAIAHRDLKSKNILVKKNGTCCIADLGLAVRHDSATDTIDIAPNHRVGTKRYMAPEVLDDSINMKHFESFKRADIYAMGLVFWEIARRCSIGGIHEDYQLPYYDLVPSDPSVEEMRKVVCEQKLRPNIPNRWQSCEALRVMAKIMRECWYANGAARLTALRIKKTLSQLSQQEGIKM
- PROCEDURE DETAILS: Biochemical ALK5 (TGF-βR1) assay to measure pKi (LANCE Ultra ULight kinase assay)
- CONDITION LABEL: apparent pKi, converted from pIC50 by Cheng-Prusoff
pKi: −log10 of the molar value.

Measured pKi, Cc1cccc(-c2nccc(Nc3ccnc(Nc4cc(N)c5c(c4)OCCO5)n3)n2)n1 [Compound 191] : 8.50 to 9.40

pKi measured on Cc1cccc(-c2nccc(Nc3ccnc(Nc4ccc(N5CCN(C6CCNC6)CC5)cc4)n3)n2)n1 (stereo not shown) [Compound 429] = 9.50 to 10.40

Looking up Cc1cccc(-c2nc(Nc3ccnc(Nc4ccc(NC5CNC5)cc4)n3)c3cccn3n2)n1 [Compound 1040] , I found its pKi recorded as 9.50 to 10.40

The measured pKi associated with Cc1cccc(-c2nccc(Nc3ccnc(Nc4ccc(C(=O)OCC5CNC5)nc4)n3)n2)n1 [Compound 545] reads 9.50 to 10.40

Note to self: pKi recorded for Cc1cccc(-c2nccc(Nc3ccnc(Nc4csc(NC(=O)C5CCNCC5)c4)n3)n2)n1 [Compound 452] was 9.50 to 10.40
